test system: SNB-19 CNS; experiment: NCI tumour cell line growth inhibition, 48 h
Item-by-item account of TGI

Example molecules with recorded TGI:
MOLECULE | RECORDED_RESULT
CN(C)CCOc1ccc(I)cc1Cc1ccccc1 | 28 µM
S=C(NNC1=NCCCN1)Nc1ccccc1 | > 100 µM
COc1c(OC(C)=O)ccc(/C=C2\N=C(C)OC2=O)c1[N+](=O)[O-] | > 100 µM

Next up:
What value of measured TGI is listed for COc1cc2c(cc1OC)C1Cc3ccccc3CCN1CC2 (centres undefined) ?
> 100 µM

====

Item-by-item account of TGI
system: SR leukemia; assay: NCI tumour cell line growth inhibition, 48 h

Example compounds with recorded TGI:
COMPOUND | MEASURED_ON | TGI
O=c1[nH]c2cc(C(F)(F)F)ccc2nc1Cc1ccccc1 | SR leukemia | > 100 µM
CC(NC1=CC(=O)c2ncccc2C1=O)C(O)c1ccccc1 (configuration not stated) | SR leukemia | > 100 µM
CC(=O)Oc1c(C)n(CCCl)ccc1=O | SR leukemia | > 100 µM

What value of measured TGI is listed for `O=C1NCC2(CCNCC2)N1c1ccccc1` ?
> 100 µM

What value of measured TGI is listed for `COc1cc2c3c(n(C)c(=O)c2cc1OC)-c1cc2c(cc1/C3=C\CCCCN)OCO2` ?
> 100 µM

What value of measured TGI is listed for `Cc1ccc(-c2sc(-c3ccc(C)cc3)c3c2C2CCC3C2)cc1` ?
> 50 µM

What value of measured TGI is listed for Cc1ccc(S(=O)(=O)NC(CCC(=O)Nc2ccc(Cl)cc2)C(=O)Nc2ccc(Cl)cc2)cc1 (configuration not stated) ?
6.76 µM
